- System: mice
- Procedure text: Pedestal test: mice staying on the pedestal for more than 1 minute
- Type: in vivo
- Experimental setup: Mus musculus, ip; intraperitoneal injection; table 1; read-out: ED50 P (pedestal test)
- Experimental: Sedative effects of 8-chloro-1-methyl-6-phenyl-4H-s-triazolo-[4,3-a][1,4]benzodiazepine are shown by the following tests in mice: Pedestal test: The untreated mouse leaves the pedestal in less than a minute to climb back to the floor of the standard mouse box. Tranquilized mice will stay on the pedestal for more than 1 minute. The ED50 (intraperitoneal administration) is 0.20 mg./kg.; the ED50 (oral administration) is 0.9 mg.kg.
I'd appreciate it if you could supply ED50 values for the items below.
Write down the numeric answer in mg/kg and omit the unit.

Problem: Fill in the blank: the reported ED50 of `Cc1nnc2n1-c1ccc(C(F)(F)F)cc1C(c1ccccc1)=NC2` is ____.
Solution: 0.22

Problem: Then what about the molecule `Cc1nnc2n1-c1ccc(Cl)cc1C(c1ccccc1F)=NC2` ?
Solution: 0.028

Problem: Then what about the molecule `Cc1nnc2n1-c1ccc(Cl)cc1C(c1c(F)cccc1F)=NC2` ?
Solution: 0.02

Problem: Then what about the molecule `Clc1ccc2c(c1)C(c1ccccc1)=NCc1nncn1-2` ?
Solution: 0.7

# credit: patent US3987052A
